Where do the numbers come from? From the supplement of paper PMC11061612.

Tested on: JHU-022 (Oral Cavity Carcinoma)
PROTOCOL DETAILS: combination Emax (second highest fraction inhibited in the dose matrix, 72 h); higher = more inhibition; extreme values may be limits of the assay
PROPERTY MEASURED: combination Emax

Cc1nc(Nc2ncc(C(=O)Nc3c(C)cccc3Cl)s2)cc(N2CCN(CCO)CC2)n1 [Dasatinib] + CC(=O)Nc1cccc(-n2c(=O)n(C3CC3)c(=O)c3c(Nc4ccc(I)cc4F)n(C)c(=O)c(C)c32)c1 [Trametinib] (first compound max 2 µM, 7x7, partner max 1 µM)
0.681
CC(=O)c1c(C)c2cnc(Nc3ccc(N4CCNCC4)cn3)nc2n(C2CCCC2)c1=O [Palbociclib] + Cn1cnc2c(F)c(Nc3ccc(Br)cc3Cl)c(C(=O)NOCCO)cc21 [Selumetinib] (first compound max 10 µM, 7x7, partner max 10 µM)
0.54
C=CCn1c(=O)c2cnc(Nc3ccc(N4CCN(C)CC4)cc3)nc2n1-c1cccc(C(C)(C)O)n1 [AZD1775] + Nc1ccn([C@@H]2O[C@H](CO)[C@@H](O)C2(F)F)c(=O)n1 [Gemcitabine] (first compound max 1 µM, partner max 0.3 µM)
0.617
Cn1cnc2c(F)c(Nc3ccc(Br)cc3Cl)c(C(=O)NOCCO)cc21 [Selumetinib] + C[C@@H]1COCCN1C2=NC(=NC(=C2)C3(CC3)[S@](=N)(=O)C)C4=C5C=CNC5=NC=C4 [AZD6738] (first compound max 10 µM, 7x7, partner max 10 µM)
0.567
CN(C)CCCOc1ccc(-c2ccc3ncc4c(c3c2)n(C2CCOCC2)c(=O)n4C)cn1 [AZD0156] + O=C(c1cc(Cc2n[nH]c(=O)c3ccccc23)ccc1F)N1CCN(C(=O)C2CC2)CC1 [Olaparib] (first compound max 3 µM, partner max 3 µM)
0.62

###

// values below are reported combination Emax
Tested on: CA46 (Burkitt's Lymphoma)
PROTOCOL DETAILS: combination Emax (second highest fraction inhibited in the dose matrix, 72 h); higher = more inhibition; extreme values may be limits of the assay
PROPERTY MEASURED: combination Emax

COc1cccc(OCCCN)c1-c1cc(Nc2cnc(C#N)cn2)n[nH]1 [Prexasertib] + CN(C)CCCOc1ccc(-c2ccc3ncc4c(c3c2)n(C2CCOCC2)c(=O)n4C)cn1 [AZD0156] (first compound max 1 µM, 7x7, partner max 1 µM)
0.745
CC1(C)CCC(CN2CCN(c3ccc(C(=O)NS(=O)(=O)c4ccc(NCC5CCOCC5)c([N+](=O)[O-])c4)c(Oc4cnc5[nH]ccc5c4)c3)CC2)=C(c2ccc(Cl)cc2)C1 [Venetoclax] + C[C@@H]1COCCN1C2=NC(=NC(=C2)C3(CC3)[S@](=N)(=O)C)C4=C5C=CNC5=NC=C4 [AZD6738] (first compound max 1 µM, 7x7, partner max 10 µM)
0.506
CN(CCO)CC[C@H](CSc1ccccc1)Nc1ccc(S(=O)(=O)NC(=O)c2ccc(N3CCC([C@@H](O)c4ccccc4-c4ccc(Cl)cc4)CC3)cc2)cc1S(=O)(=O)C(F)(F)F [AZD4320] + Cc1cc2ncnn2cc1Nc1ncc2c(n1)n(C1CCOCC1)c(=O)n2C [AZD7648] (first compound max 1 µM, 7x7, partner max 10 µM)
0.306
CCN(CCO)CCCOc1ccc2c(Nc3cc(CC(=O)Nc4cccc(F)c4)[nH]n3)ncnc2c1 [AZD2811] + C=CCn1c(=O)c2cnc(Nc3ccc(N4CCN(C)CC4)cc3)nc2n1-c1cccc(C(C)(C)O)n1 [AZD1775] (first compound max 1 µM, partner max 1 µM)
0.489
CC1(C)CCC(CN2CCN(c3ccc(C(=O)NS(=O)(=O)c4ccc(NCC5CCOCC5)c([N+](=O)[O-])c4)c(Oc4cnc5[nH]ccc5c4)c3)CC2)=C(c2ccc(Cl)cc2)C1 [Venetoclax] + C[C@@H](Nc1cc(F)cc(F)c1)c1cc(C(=O)N(C)C)cc2c(=O)cc(N3CCOCC3)oc12 [AZD8186] (first compound max 1 µM, 7x7, partner max 3 µM)
0.533
Cc1c2c(nn1C)CSCc1cc(n(C)n1)CSc1cc(c3ccccc3c1)OCCCc1c(C(=O)O)n(C)c3c-2c(Cl)ccc13 [AZD5991] + Cc1cc2ncnn2cc1Nc1ncc2c(n1)n(C1CCOCC1)c(=O)n2C [AZD7648] (first compound max 1 µM, 7x7, partner max 10 µM)
0.281
CC(=O)c1c(C)c2cnc(Nc3ccc(N4CCNCC4)cn3)nc2n(C2CCCC2)c1=O [Palbociclib] + Cn1cnc2c(F)c(Nc3ccc(Br)cc3Cl)c(C(=O)NOCCO)cc21 [Selumetinib] (first compound max 10 µM, 7x7, partner max 10 µM)
0.345
